testTarget: bovine thrombin (Bos taurus)
measurementProtocol: Antithrombin activity: inhibition of fibrin formation from fibrinogen
Assay type: biochemical
experimentalParameters: Table 4, comparative compounds of Table 3; coagulation time extended twice; read-out: Thrombin Fibrinogen (I50)
quantityKind: IC50

Entry CC(=O)NC(Cc1ccc([N+](=O)[O-])cc1)C(=O)Nc1ccc([N+](=O)[O-])cc1 (stereo not shown) [Table 3 Compound No. 4, reference compound] ; assay system bovine thrombin (Bos taurus); IC50 recorded at > 100 µM

Measured IC50 for this entry NCc1ccc(C(=O)NC(Cc2ccccc2)C(=O)N2CCCCC2)cc1 (stereo not shown) [Table 3 Compound No. 3, reference compound] on bovine thrombin (Bos taurus): > 1000 µM

Hey, bovine thrombin (Bos taurus) data for NC[C@H]1CC[C@H](C(=O)O)CC1 [Table 3 Compound No. 1, tranexamic acid, reference compound] : IC50 came out at > 1000 µM

Query CC(=O)NC(Cc1ccc(OCc2ccccc2)cc1)C(=O)N(C)C (stereo not shown) [Table 3 Compound No. 5, reference compound] on bovine thrombin (Bos taurus); IC50 returned: > 200 µM

---

testTarget: UniProt P00747
Sequence (P00747 581-810 limits assumed): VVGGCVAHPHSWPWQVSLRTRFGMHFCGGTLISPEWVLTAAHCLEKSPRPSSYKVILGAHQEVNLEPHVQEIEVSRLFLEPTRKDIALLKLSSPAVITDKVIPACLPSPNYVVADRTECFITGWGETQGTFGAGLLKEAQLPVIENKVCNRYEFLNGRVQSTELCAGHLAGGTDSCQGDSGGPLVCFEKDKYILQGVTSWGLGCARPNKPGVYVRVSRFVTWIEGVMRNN
Sequence (P00747 97-580 partner limits assumed): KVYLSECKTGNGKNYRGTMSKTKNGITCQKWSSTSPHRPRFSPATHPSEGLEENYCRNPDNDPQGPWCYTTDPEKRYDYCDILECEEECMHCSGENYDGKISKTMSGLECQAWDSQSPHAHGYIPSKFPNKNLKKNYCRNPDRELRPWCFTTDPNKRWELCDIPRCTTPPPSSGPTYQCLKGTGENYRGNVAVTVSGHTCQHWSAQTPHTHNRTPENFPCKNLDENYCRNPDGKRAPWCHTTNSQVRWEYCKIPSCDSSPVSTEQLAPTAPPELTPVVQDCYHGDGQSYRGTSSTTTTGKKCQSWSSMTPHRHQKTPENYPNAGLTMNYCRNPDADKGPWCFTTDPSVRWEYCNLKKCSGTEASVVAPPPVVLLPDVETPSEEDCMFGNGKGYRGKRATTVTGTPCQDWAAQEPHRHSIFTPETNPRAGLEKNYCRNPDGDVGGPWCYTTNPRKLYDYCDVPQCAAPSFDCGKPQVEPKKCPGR
measurementProtocol: biochemical
experimentalParameters: read-out: Plasmin S-2251 (I50)
Where a name gives a salt, the structure may show the parent alone.
quantityKind: pIC50
Just so you know, pIC50 here is -log10 of the concentration in molar units; reply with that number alone.

Data point: CC(=O)c1ccc(NC(=O)[C@H](Cc2ccc(OC(=O)OCc3ccccc3Br)cc2)NC(=O)[C@H]2CC[C@H](CN)CC2)cc1 [compound 144] ; pIC50 = 6.64

// pIC50 value for CC(=O)c1ccc(NC(=O)[C@H](Cc2ccc(OCc3cccc(C#N)c3)cc2)NC(=O)[C@H]2CC[C@H](CN)CC2)cc1 [Compound No. 122, hydrochloride] : 5.96

In plain terms, CC1CCC(NC(=O)C(Cc2ccc(OCc3cccc(Cl)c3)cc2)NC(=O)c2ccc(CN)cc2)CC1C (stereo not drawn) [compound 103] has a documented pIC50 of 6.11

---

testTarget: bovine trypsin (Bos taurus)
Sequence (P00760 24-246): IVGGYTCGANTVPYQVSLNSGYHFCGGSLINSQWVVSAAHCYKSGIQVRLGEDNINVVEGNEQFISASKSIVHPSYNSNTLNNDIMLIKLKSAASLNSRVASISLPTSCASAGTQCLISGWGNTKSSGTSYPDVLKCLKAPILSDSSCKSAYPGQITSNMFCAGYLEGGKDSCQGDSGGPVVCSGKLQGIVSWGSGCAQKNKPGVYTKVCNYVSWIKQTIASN
measurementProtocol: Antitrypsin activity: inhibition of S-2238 decomposition
Format: biochemical
experimentalParameters: Table 2; S-2238 substrate, pH 8.1, 37° C.; read-out: Trypsin S-2238 (I50)
pIC50: −log10 of the molar value. Counter-ions that a name gives are not always drawn.
If the reported pIC50 equals or exceeds 6, assign satisfied. If not, assign not satisfied.

[Q] In plain terms: is recorded pIC50 at least 6 for NCc1ccc(C(=O)N[C@@H](Cc2ccc(OCc3ccccc3)cc2)C(=O)NC2CCCCC2)cc1 [Compound No. 114, hydrochloride] ?
[A] not satisfied

[Q] // inclusive: pIC50 at least 6? input: NCc1ccc(C(=O)N[C@@H](Cc2ccc(OCc3ccccc3)cc2)C(=O)N2CCC(C(=O)c3ccccc3)CC2)cc1 [compound 76]
[A] not satisfied

[Q] hey, is pIC50 for this one >= 6? CC(=O)c1ccc(NC(=O)[C@H](Cc2ccc(OCc3cccc(C(F)(F)F)c3)cc2)NC(=O)[C@H]2CC[C@H](CN)CC2)cc1 [compound 55]
[A] not satisfied

[Q] Reported pIC50 at or above 6? NC[C@H]1CC[C@H](C(=O)N[C@@H](Cc2ccccc2)C(=O)Nc2ccc(C(=O)c3ccccc3)cc2)CC1 [Compound No. 1]
[A] satisfied

[Q] Given NCc1ccc(C(=O)NC(Cc2ccc(OCc3ccccc3)cc2)C(=O)NCc2ccc(F)cc2)cc1 (stereo not shown) [compound 113] , state whether its pIC50 is at least 6.
[A] not satisfied
